# experimentalSystem: human CA-IX (Homo sapiens)
# Construct: purchased Acro CA9-H82E3
# methodDescription: Surface Plasmon Resonance (SPR) binding kinetics to recombinant human CA-IX (Biacore 8K, single-cycle kinetics, 1:1 binding model)
# assayConditions: read-out: CAIX KD; Chelated Metal: Lu-175; SPR, 25° C., pH 7.4
Could you please report measured Kd for the items listed next?

// query Kd value for entry CC(CCC(=O)N[C@@H](CC(=O)N[C@@H](CC(=O)N1CCN(C(=O)NCCOCCNC(=O)CN2CCN(CC(=O)O)CCN(CC(=O)O)CCN(CC(=O)O)CC2)C[C@@H]1CCCCn1cc(CCCC(=O)Nc2nnc(S(N)(=O)=O)s2)nn1)C(=O)O)C(=O)O)(c1ccc(O)cc1)c1ccc(O)cc1.[Lu+3] 1 to 2.5 nM

How about CC(CCC(=O)N1CCC(C(=O)O)(C(=O)NCC(=O)N[C@@H](CCCCn2cc(CCCC(=O)Nc3nnc(S(N)(=O)=O)s3)nn2)C(=O)NCCOCCOCCNC(=O)CN2CCN(CC(=O)O)CCN(CC(=O)O)CCN(CC(=O)O)CC2)CC1)(c1ccc(O)cc1)c1ccc(O)cc1.[Lu+3] ? 1 to 2.5 nM

How about CC(CCC(=O)N[C@@H](CC(=O)N[C@@H](CC(=O)N[C@@H](CCCCn1nnc(C(=O)O)c1C12CCC(C(=O)Nc3nnc(S(N)(=O)=O)s3)(CC1)CC2)C(=O)NCCOCCOCCNC(=O)CN1CCN(CC(=O)O)CCN(CC(=O)O)CCN(CC(=O)O)CC1)C(=O)O)C(=O)O)(c1ccc(O)cc1)c1ccc(O)cc1.[Lu+3] ? 1 to 2.5 nM
